# TARGET_ENTITY: Estrogen receptor (Homo sapiens) (UniProt P03372)
# Sequence (P03372 whole entry, looked up): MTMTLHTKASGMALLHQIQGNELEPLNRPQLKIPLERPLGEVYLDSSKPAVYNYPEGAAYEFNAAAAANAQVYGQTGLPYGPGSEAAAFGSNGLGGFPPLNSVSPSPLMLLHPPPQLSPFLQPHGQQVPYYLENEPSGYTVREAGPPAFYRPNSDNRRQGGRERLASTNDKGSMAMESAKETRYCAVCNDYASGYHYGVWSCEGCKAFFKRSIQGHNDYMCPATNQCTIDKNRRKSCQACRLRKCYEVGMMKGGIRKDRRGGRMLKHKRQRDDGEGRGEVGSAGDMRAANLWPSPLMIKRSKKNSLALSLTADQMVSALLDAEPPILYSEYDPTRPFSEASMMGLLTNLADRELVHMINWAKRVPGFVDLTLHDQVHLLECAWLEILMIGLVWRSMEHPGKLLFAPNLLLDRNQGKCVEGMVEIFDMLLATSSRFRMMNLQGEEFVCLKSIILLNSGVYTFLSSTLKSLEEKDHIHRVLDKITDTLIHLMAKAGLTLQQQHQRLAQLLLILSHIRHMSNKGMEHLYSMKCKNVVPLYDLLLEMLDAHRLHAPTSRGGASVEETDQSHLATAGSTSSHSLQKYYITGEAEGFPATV
# PROTOCOL_NOTES: fluorescent estrogen displacement from ERalpha – cell-based, Cos7 ERalpha-GFP, flow cytometry, dose response (AID 1223)
# CONDITIONS: E2-Alexa633 competitive binding, at 10 µM (top of the series)
Activity calls are given as the source filed them.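 The calls were made as follows: active = total score of at least 50 of 100, built from tracer displacement at 10 µM, potency and curve span; inactive = total score under 50.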
OBSERVED_PROPERTY: fluorescent ligand binding remaining

The examples below pair each entry with its known result.
CCc1ccc(-c2nn(-c3ccccc3)cc2CSC(=N)N)cc1; inactive
CCn1nnc(NC(=O)CSc2ccc(Cl)cc2)n1; 68.5%
N=C1C(c2nc3ccccc3[nH]2)=C(O)CN1c1ccc(CC(=O)O)cc1; inactive
Cc1oc2cc(O)ccc2c(=O)c1Oc1ccccc1; 42%

In plain terms, COc1cccc(C2Nc3c(F)cc(Br)cc3C3C=CCC32)c1OC (configuration not stated) has a documented fluorescent ligand binding remaining of inactive

In plain terms, `O=C(c1cc2ncc(Br)cn2n1)N1CCN(C(=O)c2ccco2)CC1` has a documented fluorescent ligand binding remaining of inactive

In plain terms, `Oc1ccc(-c2nc3ccc4ccccc4c3c3c2CCC3)cc1O` has a documented fluorescent ligand binding remaining of inactive

In plain terms, CCC(=O)Oc1ccc(C(CC)C(CC)c2ccc(OC(=O)CC)cc2)cc1 (configuration not stated) has a documented fluorescent ligand binding remaining of 19.9%

In plain terms, `O=C(Cc1cccs1)Nc1ccc(S(=O)(=O)Nc2ncccn2)cc1` has a documented fluorescent ligand binding remaining of inactive

In plain terms, `Cc1ccc(-n2c(=O)c(C#N)cc3c(=O)n4cccc(C)c4nc32)cc1` has a documented fluorescent ligand binding remaining of inactive

In plain terms, Cc1cc(C)c2c(c1)NC(c1cc3c(cc1Br)OCO3)C1CC=CC21 (configuration not stated) has a documented fluorescent ligand binding remaining of inactive

In plain terms, CC(=O)c1ccc2c(c1)C1C=CCC1C(c1ccc(S(=O)(=O)N3CCOCC3)cc1)N2 (configuration not stated) has a documented fluorescent ligand binding remaining of inactive

###

# TARGET_ENTITY: Estrogen receptor (Homo sapiens) (UniProt P03372)
# PROTOCOL_NOTES: fluorescent estrogen displacement from ERalpha – cell-based, Cos7 ERalpha-GFP, flow cytometry, dose response (AID 1223)
# CONDITIONS: E2-Alexa633 competitive binding, at 10 µM (top of the series)
Activity calls are given as the source filed them.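 The calls were made as follows: active = total score of at least 50 of 100, built from tracer displacement at 10 µM, potency and curve span; inactive = total score under 50.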
Your response should consist of one outcome taken from 1.0 = active, 0.0 = inactive

As a guide, the following entries are already answered.
CC(=O)Nc1ccc(OC(=O)CC2SC(=O)NC2=O)cc1 (configuration not stated); 0.0
C[C@]12CC[C@@H]3c4ccc(O)cc4C(=O)C[C@H]3[C@@H]1CC[C@@H]2O; 0.0
O=C1/C(=C\c2ccco2)SC(=S)N1c1ccc(O)cc1; 0.0
C/C=C(/C(=C/C)c1ccc(O)cc1)c1ccc(O)cc1; 0.0
CCC(=O)Oc1ccc(/C(CC)=C(\CC)c2ccc(OC(=O)CC)cc2)cc1; 1.0
Cc1cc([N+](=O)[O-])c2c(c1C)C1C=CCC1C(c1ccccn1)N2 (configuration not stated); 1.0
Cc1cc(-c2nn3c(-c4ccccc4)nnc3s2)c2ccccc2n1; 0.0
Oc1ccc(-c2nc(-c3ccc(O)c(O)c3)cs2)cc1; 0.0

Please look at the following compound next.
Tell me the assay call for COc1ccc(NC(=O)C(c2ccccc2)N(C)C(=O)c2ccc(=O)[nH]c2)cc1 (configuration not stated) please.
1.0
